B1: TPR t1 (parent)
chain: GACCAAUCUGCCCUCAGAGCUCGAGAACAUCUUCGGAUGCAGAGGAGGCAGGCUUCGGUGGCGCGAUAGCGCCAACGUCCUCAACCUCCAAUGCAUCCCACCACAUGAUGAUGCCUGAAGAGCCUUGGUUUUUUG

Variants of: B1
procedure_details: polymerase ribozyme fitness, log enrichment relative to wild type (log ratio); higher = more active; in vitro selection for triplet polymerase activity
Label Condition not met if polymerase ribozyme fitness (log ratio) falls below -3; label Condition met in every other case.

> print(dat)
                  mutation.spec  qualitative.label
1   C56U C72U U112G G117U C124U      Condition met
2                    C13G A100C  Condition not met
3                    C73A G120A      Condition met
4  C3U U9G G45A G51U C53G C123A  Condition not met
5            C8G U14G G61C A66C      Condition met
6                C28G C82G C86A  Condition not met

Let's switch to this variant now.
Request: In plain terms: is recorded polymerase ribozyme fitness (log ratio) at least -3 for C62U G110U ?
Response: Condition met
